Data provenance: patent US11827627B2

subject.of.test: human NaV 1.8 (Homo sapiens, UniProt Q9Y5Y9)
Sequence (Q9Y5Y9 126-1722 limits assumed): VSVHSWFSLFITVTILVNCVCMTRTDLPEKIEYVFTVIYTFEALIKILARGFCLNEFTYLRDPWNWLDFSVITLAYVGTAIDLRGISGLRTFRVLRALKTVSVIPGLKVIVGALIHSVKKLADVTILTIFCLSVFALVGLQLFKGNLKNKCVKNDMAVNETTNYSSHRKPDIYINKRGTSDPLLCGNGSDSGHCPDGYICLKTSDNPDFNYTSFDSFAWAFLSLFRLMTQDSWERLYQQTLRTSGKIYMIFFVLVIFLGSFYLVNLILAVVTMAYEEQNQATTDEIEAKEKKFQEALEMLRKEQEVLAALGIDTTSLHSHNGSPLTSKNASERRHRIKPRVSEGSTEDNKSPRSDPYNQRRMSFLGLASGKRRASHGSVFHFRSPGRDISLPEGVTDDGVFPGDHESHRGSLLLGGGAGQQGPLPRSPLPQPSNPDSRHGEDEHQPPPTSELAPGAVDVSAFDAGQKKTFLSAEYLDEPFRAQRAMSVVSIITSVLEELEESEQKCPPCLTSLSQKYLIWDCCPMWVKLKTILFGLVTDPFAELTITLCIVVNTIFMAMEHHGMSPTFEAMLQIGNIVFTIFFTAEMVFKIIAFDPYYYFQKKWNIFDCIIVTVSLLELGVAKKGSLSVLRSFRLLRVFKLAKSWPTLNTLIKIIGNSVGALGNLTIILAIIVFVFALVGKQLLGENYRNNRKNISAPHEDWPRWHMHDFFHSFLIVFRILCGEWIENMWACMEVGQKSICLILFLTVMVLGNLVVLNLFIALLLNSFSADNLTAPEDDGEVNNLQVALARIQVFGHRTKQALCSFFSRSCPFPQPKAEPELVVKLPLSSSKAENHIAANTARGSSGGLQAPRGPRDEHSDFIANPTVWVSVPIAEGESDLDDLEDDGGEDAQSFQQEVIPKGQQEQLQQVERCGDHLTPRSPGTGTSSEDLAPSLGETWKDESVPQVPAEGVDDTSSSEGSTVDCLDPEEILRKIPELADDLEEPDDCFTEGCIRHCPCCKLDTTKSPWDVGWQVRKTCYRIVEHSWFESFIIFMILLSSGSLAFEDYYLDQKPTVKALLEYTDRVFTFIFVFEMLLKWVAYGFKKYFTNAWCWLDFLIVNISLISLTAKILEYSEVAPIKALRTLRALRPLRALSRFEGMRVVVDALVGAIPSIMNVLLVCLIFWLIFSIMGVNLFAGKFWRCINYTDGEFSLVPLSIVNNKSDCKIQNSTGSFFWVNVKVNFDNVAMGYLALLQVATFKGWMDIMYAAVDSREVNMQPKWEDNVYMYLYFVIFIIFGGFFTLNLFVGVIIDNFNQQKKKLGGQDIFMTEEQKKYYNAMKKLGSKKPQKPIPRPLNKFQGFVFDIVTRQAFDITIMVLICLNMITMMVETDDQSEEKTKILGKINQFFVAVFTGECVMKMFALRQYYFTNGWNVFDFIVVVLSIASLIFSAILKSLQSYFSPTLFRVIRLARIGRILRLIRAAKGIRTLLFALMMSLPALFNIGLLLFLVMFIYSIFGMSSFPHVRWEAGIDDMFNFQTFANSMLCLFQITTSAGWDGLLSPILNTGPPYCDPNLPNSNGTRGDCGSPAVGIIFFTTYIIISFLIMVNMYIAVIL
protocol.text: E-VIPR assay detecting and measuring NaV inhibition properties
test.context: HEK cells expressing a truncated form of human NaV 1.8; electrical stimulation, membrane potential FRET dyes
parameter.measured: IC50

Would you please look over these solved cases?
| compound | IC50 |
| --- | --- |
| CCOc1c([C@H]2C[C@@](C)(C(F)(F)F)O[C@@H]2C(=O)Nc2ccc([C@H](O)CO)nc2)ccc(F)c1F (single isomer, unassigned) | ≥ 1000 nM |
| COc1c([C@@H]2C[C@](C)(C(F)(F)F)O[C@H]2C(=O)Nc2cnc(C(O)CO)nc2)ccc(F)c1F (single isomer, unassigned) | 100 to 1000 nM |
| COc1c(C2C(C(=O)Nc3ccc(C(O)CO)nc3)OC(C)(C(F)(F)F)C2C)ccc(F)c1C(F)F (single isomer, unassigned) [Compound 50] | ≥ 1000 nM |

GET IC50 | system: human NaV 1.8 (Homo sapiens, UniProt Q9Y5Y9) | item: COc1c([C@@H]2[C@@H](C(=O)Nc3cnc(C(O)CO)nc3)O[C@](C)(C(F)(F)F)[C@@H]2C)cccc1C(F)(F)F (single isomer, unassigned)
≥ 1000 nM

GET IC50 | system: human NaV 1.8 (Homo sapiens, UniProt Q9Y5Y9) | item: C[C@H]1[C@@H](c2ccc(F)c(F)c2O)[C@H](C(=O)Nc2ccc([C@@H](O)CO)nc2)O[C@@]1(C)C(F)(F)F
100 to 1000 nM

GET IC50 | system: human NaV 1.8 (Homo sapiens, UniProt Q9Y5Y9) | item: COc1c(C2C(C(=O)Nc3cnc(CO)nc3)OC(C)(C(F)(F)F)C2C)ccc(F)c1C(F)F (single isomer, unassigned) [Compound 54]
< 10 nM
